- Tested Target: T1, CD123-his-biotin抗原 (Homo sapiens (Human), UniProt P26951 19-305, biotin label (site not stated))
- T1 construct: Bought from SinoBiological and biotin-labelled; also called CD123-Biotin; CD123抗原; not shown: his tag
- T1 sequence: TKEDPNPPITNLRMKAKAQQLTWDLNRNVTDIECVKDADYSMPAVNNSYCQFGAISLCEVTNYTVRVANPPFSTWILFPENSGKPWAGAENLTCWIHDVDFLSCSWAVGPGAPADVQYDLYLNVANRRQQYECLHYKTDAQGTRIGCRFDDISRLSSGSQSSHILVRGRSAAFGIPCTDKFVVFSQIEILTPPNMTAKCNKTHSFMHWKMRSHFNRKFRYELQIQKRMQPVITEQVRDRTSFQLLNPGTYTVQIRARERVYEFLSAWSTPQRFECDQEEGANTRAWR
- Assay Notes: BLI (Octet RED96), CD123-Biotin on AR2G sensor, scFv periplasmic extract as analyte
- Set-up: unit not given here
Quick reference for 响应 among some binders
Give a plain numeric answer without units written out.

Requested read-out: 响应. Entry: 7G8 (scFv, V domains shown, also called 抗体7G8) VH: QVQLQQPGAELVRPGASVKLSCKASGYTFTSYWMNWVKQRPDQGLEWIGRIDPYDSETHYNQKFKDKAILTVDKSSSTAYMQLSSLTSEDSAVYYCARGNWDDYWGQGTTLTVSS VL: DVQITQSPSYLAASPGETITINCRASKSISKDLAWYQEKPGKTNKLLIYDASRRGSGIPSRFSGSGSGTDFTLTISSLEPEDFAMYYCQQHNKYPYTFGGGTKLEIK
0.463

Thanks! And 5E10 (scFv, V domains shown) VH: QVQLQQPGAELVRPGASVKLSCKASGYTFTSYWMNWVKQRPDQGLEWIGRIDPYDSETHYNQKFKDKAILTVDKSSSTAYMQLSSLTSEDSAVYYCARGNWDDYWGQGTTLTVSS VL: DVQITQSPSYLAASPGETITINCRASKSISKDLAWYQEKPGKTNKLLIYSSSQRLSGIPSRFSGSGSGTDFTLTISSLEPEDFAMYYCQQHNKYPYTFGGGTKLEIK ?
0.24

Thanks! And 8A7 (scFv, V domains shown, 31 is used here; also called 抗体8A7) VH: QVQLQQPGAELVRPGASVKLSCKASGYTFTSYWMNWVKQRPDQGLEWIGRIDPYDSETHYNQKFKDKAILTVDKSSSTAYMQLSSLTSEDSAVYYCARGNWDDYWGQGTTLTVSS VL: DVQITQSPSYLAASPGETITINCRASKSISKDLAWYQEKPGKTNKLLIYSGSTLQSGIPSRFSGSGSGTDFTLTISSLEPEDFAMYYCQQTNRYPYTFGGGTKLEIK ?
0.471
